molecular target: T1, neuropilin-1 (NRP1) on HEK293 cells overexpressing NRP1 (UniProt O14786 22-923, limits assumed); assay: flow cytometry, HEK293-NRP1 vs HEK293
T1 construct: whole, on cells
Please respond with 1 (yes) when measured 100 nM FACS (MFI Ratio) is strictly beneath 2, and with 0 (no) in all other cases.

Would you kindly verify if 100 nM FACS (MFI Ratio) of NRP1-103 (VHH) VHH: EVQLVESGGGLVQPGGSLRLSCAASGRTLSRYTMGWFRQAPGKERELVATITSGGSTGYADSVKGRFTISADNSKNTAYLQMNSLKPEDTAVYYCAKDKWGVRGEFDSWGQGTLVTVSS is strictly less than 2?
0 (no)

Would you kindly verify if 100 nM FACS (MFI Ratio) of NRP1-287 (antibody, IgG2, V domains shown) VH: EVQLLESGGGLVQPGGSLRLYCAASGFTFGSYGMSWVRQAPGKGLEWVSSISGSGGSTYYTDSVKGRFTISRDNSKNTLYLQMNSLRAEDTAVYYCARDLARGTMPRGVIIPHNWFDPWGQGTLVTVSS VL: DIQMTQSPSSLSASVGDRVTITCRASQTISNYVNWYQQKPGKAPKLLIYAASSLHAGVPSRFSGSGSGTDFTLTISSLQPEDFATYYCQQGYSTPLTFGGGTKVEIK is strictly less than 2?
1 (yes)

Would you kindly verify if 100 nM FACS (MFI Ratio) of NRP1-127 (antibody, IgG2, V domains shown) VH: EVQLLESGGGLVQPGGSLRLSCAASGFTFSNYGVSWVRQAPGKGLEWVSYISSSGSSTYYADSVKGRFTISRDNSKNTLYLQMNSLRAEDTAVYYCAKGARRFDYWGQGTLVTVSS VL: DIQMTQSPSSLSASVGDRVTITCRASHNINSYLNWYQQKPGKAPKLLIYGKKNRPSGVPSRFSGSGSGTDFTLTISSLQPEDFATYYCGQSYRYPLTFGQGTKVEIK is strictly less than 2?
0 (no)

Would you kindly verify if 100 nM FACS (MFI Ratio) of NRP1-19 (VHH) VHH: EVQLVESGGGLVQPGGSLRLSCAASGIAFRIRTMGWFRQAPGKEREFVAGISRSGASTAYADSVKGRFTISADNSKNTAYLQMNSLKPEDTAVYYCTTDRWYSSNWWGQGTLVTVSS is strictly less than 2?
0 (no)

Would you kindly verify if 100 nM FACS (MFI Ratio) of NRP1-86 (VHH) VHH: EVQLVESGGGLVQPGGSLRLSCAASGNIFINNAMGWFRQAPGKERELVAAITSSSGRRWYADSVKGRFTISADNSKNTAYLQMNSLKPEDTAVYYCAADRMYRPVGNQYDWGQGTLVTVSS is strictly less than 2?
0 (no)

Would you kindly verify if 100 nM FACS (MFI Ratio) of NRP1-102 (VHH) VHH: EVQLVESGGGLVQPGGSLRLSCAASGGTIRTMGWFRQAPGKEREFVATISWSGALTHYADSVKGRFTISADNSKNTAYLQMNSLKPEDTAVYYCAHRDNFWSAYYDFWGQGTLVTVSS is strictly less than 2?
0 (no)

Would you kindly verify if 100 nM FACS (MFI Ratio) of NRP1-93 (VHH) VHH: EVQLVESGGGLVQPGGSLRLSCAASGIPFRSRTMGWFRQAPGKEREFVATINTGGGTYADSVKGRFTISADNSKNTAYLQMNSLKPEDTAVYYCARHGDTYYYGSGTVRSLDYWGQGTLVTVSS is strictly less than 2?
1 (yes)
